These measurements were taken from patent US7432342.

Assignment: determine reported pKd for the given binders.
# target_system: PKA RIα (full-length) (bovine, UniProt P00514)
# Sequence (P00514 2-380): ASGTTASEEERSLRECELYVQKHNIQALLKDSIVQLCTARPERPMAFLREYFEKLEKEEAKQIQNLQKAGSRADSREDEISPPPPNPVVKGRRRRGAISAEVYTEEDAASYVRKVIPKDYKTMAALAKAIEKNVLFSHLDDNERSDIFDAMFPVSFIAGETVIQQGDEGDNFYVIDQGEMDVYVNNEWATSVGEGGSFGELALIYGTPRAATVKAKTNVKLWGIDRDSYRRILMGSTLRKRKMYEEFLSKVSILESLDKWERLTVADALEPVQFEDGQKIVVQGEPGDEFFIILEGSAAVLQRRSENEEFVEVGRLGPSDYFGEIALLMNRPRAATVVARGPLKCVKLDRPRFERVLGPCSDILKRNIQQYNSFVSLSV
# procedure_text: FP
Ends that are not written are not given here.
Entry type: numeric. Quantity: pKd, the -log10 of concentration in molar units.

Dear colleague, please send me the reported pKd for QEEFAWKIAKMIVSDVFQQC [PV-47] when you can. 7.41

Dear colleague, please send me the reported pKd for VQGNTDEAQEELAWKIAKMIWSDVMQQC [V21W] when you can. 6.92

Dear colleague, please send me the reported pKd for FEELAWKIAKMIISDVFQQC [PV-49] when you can. 8.96

Dear colleague, please send me the reported pKd for FEELAWKIAKMIWSDVMQQC [PV-37] when you can. 7.72

Dear colleague, please send me the reported pKd for FEELAWKIAKMIWSDVFQQC [AKB(RI) PV-38] when you can. 8.28

Dear colleague, please send me the reported pKd for Ac-DLAWKIAKMIVSDVMQQC [Ac-DLAWKIAKMIVSDVMQQC] when you can. 6.11

Dear colleague, please send me the reported pKd for VQGNTDEAQEELAWKIAKMIVSDVMQQC(tetramethylrhodamine) [AKB(dual) WT] when you can. 7.32

Dear colleague, please send me the reported pKd for QEEFAWKIAKMIISDVFQQC [PV-48] when you can. 7.92
